System: K86415-001-R-J1-PDC complex spheroids, viability;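 note: spheroids exposed to agents for seven days before readout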
Assay: Anticancer human tumor K86415-001-R-J1-PDC patient-derived lung adenocarcinoma cell line growth inhibition [RAS]; active = viability on the fitted dose curve at most 10% of control; inactive = the rest
Conditions: second compound 0.1 µM; first compound 0.0316 µM
Log the outcome using a class from true = active, false = inactive

Test call, this compound: NC1c2ccccc2OC12CCN(c1cnc3c(N4CCCc5ncccc54)n[nH]c3n1)CC2 (stereo not given) + C=CC(=O)N1CCN(c2nc(OCC3CCCN3C)nc3c(F)c(-c4nc(N)cc(C)c4C(F)(F)F)c(Cl)cc23)C(C)C1
true

Test call, this compound: O=C(c1ccc(F)c(F)c1Nc1ccc(I)cc1F)N1CC(O)([C@@H]2CCCCN2)C1 + C=CC(=O)N1CCN(c2nc(OCC3CCCN3C)nc3c(F)c(-c4nc(N)cc(C)c4C(F)(F)F)c(Cl)cc23)C(C)C1
true

Test call, this compound: Cc1nc(N2CCC3(CC2)COC(C)C3N)c(CO)nc1Sc1ccnc(N)c1Cl (stereo not given) + C=CC(=O)N1CCN(c2nc(OCC3CCCN3C)nc3c(F)c(-c4nc(N)cc(C)c4C(F)(F)F)c(Cl)cc23)C(C)C1
true

Test call, this compound: CC(=O)OC12COC1CC(O)C1(C)C(=O)C(O)C3=C(C)C(OC(=O)C(O)C(NC(=O)OC(C)(C)C)c4ccccc4)CC(O)(C(OC(=O)c4ccccc4)C21)C3(C)C (stereo not given) + C#Cc1c(F)ccc2cc(O)cc(-c3ncc4c(N5CC6CCC(C5)N6)nc(OCC56CCCN5CC(F)C6)nc4c3F)c12
false

Test call, this compound: C=CC(=O)Nc1cc(Nc2nccc(-c3cn(C)c4ccccc34)n2)c(OC)cc1N(C)CCN(C)C + C=CC(=O)N1CCN(c2nc(OCC3CCCN3C)nc3c(F)c(-c4nc(N)cc(C)c4C(F)(F)F)c(Cl)cc23)C(C)C1
true
